assay.name: Plasma pharmacokinetics, QD and BID cohorts (non-compartmental)
Assay type: in vivo, human
applied.conditions: human, plasma, oral, 25 mg, QD; C1D1; plasma; read-out: Tmax, Median
measure.name: Tmax (h)
Please give a number only; it is taken to be in h.

Data point: Nc1ncc(-c2cnn(C3CCNCC3)c2)cc1-c1nnc(CC2CC2)o1 [SLC-391] ; Tmax = 2

====

assay.name: Plasma pharmacokinetics, QD and BID cohorts (non-compartmental)
Assay type: in vivo, human
applied.conditions: human, plasma, oral, 25 mg, QD; C1D21; plasma; read-out: AUC0–last, Median
measure.name: AUC(0-t) (ng·h/mL)
Please give a number only; it is taken to be in ng·h/mL.

Data point: Nc1ncc(-c2cnn(C3CCNCC3)c2)cc1-c1nnc(CC2CC2)o1 [SLC-391] ; AUC(0-t) = 366

====

assay.name: Plasma pharmacokinetics, QD and BID cohorts (non-compartmental)
Format: in vivo, human
applied.conditions: human, plasma, oral, 150 mg, QD; C1D1; plasma; read-out: AUC0–last, Mean
measure.name: AUC(0-t) (ng·h/mL)
Please give a number only; it is taken to be in ng·h/mL.

Data point: `Nc1ncc(-c2cnn(C3CCNCC3)c2)cc1-c1nnc(CC2CC2)o1` ; AUC(0-t) = 1610

====

assay.name: Plasma pharmacokinetics, QD and BID cohorts (non-compartmental)
Type: in vivo, human
applied.conditions: human, plasma, oral, 100 mg, QD; C1D1; plasma; read-out: Cmax, Mean
measure.name: Cmax (ng/mL)
Please give a number only; it is taken to be in ng/mL.

Data point: Nc1ncc(-c2cnn(C3CCNCC3)c2)cc1-c1nnc(CC2CC2)o1 [SLC-391] ; Cmax = 141

====

assay.name: Plasma pharmacokinetics, QD and BID cohorts (non-compartmental)
Format: in vivo, human
applied.conditions: human, plasma, oral, 75 mg, 75 mg BID, C1D1, mean, n=3, plasma; read-out: AUC0–12
measure.name: AUC (ng·h/mL)
Please give a number only; it is taken to be in ng·h/mL.

Data point: `Nc1ncc(-c2cnn(C3CCNCC3)c2)cc1-c1nnc(CC2CC2)o1` ; AUC = 706

====

assay.name: Plasma pharmacokinetics, QD and BID cohorts (non-compartmental)
Type: in vivo, human
applied.conditions: human, plasma, oral, 100 mg, QD; C1D1; plasma; read-out: Cmax, Median
measure.name: Cmax (ng/mL)
Please give a number only; it is taken to be in ng/mL.

Data point: Nc1ncc(-c2cnn(C3CCNCC3)c2)cc1-c1nnc(CC2CC2)o1 [SLC-391] ; Cmax = 112

====

assay.name: Plasma pharmacokinetics, QD and BID cohorts (non-compartmental)
Format: in vivo, human
applied.conditions: human, plasma, oral, 25 mg, QD; C1D21; plasma; read-out: Cmax, Mean
measure.name: Cmax (ng/mL)
Please give a number only; it is taken to be in ng/mL.

Data point: `Nc1ncc(-c2cnn(C3CCNCC3)c2)cc1-c1nnc(CC2CC2)o1` ; Cmax = 41.9

====

assay.name: Plasma pharmacokinetics, QD and BID cohorts (non-compartmental)
Format: in vivo, human
applied.conditions: human, plasma, oral, 25 mg, QD; C1D1; plasma; read-out: Cmax, Mean
measure.name: Cmax
Units required after the number.

Data point: `Nc1ncc(-c2cnn(C3CCNCC3)c2)cc1-c1nnc(CC2CC2)o1` ; Cmax = 32.5 ng/mL

====

assay.name: Plasma pharmacokinetics, QD and BID cohorts (non-compartmental)
Type: in vivo, human
applied.conditions: human, plasma, oral, 100 mg, QD; C1D21; plasma; read-out: AUC0–last, Mean
measure.name: AUC(0-t)
Units required after the number.

Data point: Nc1ncc(-c2cnn(C3CCNCC3)c2)cc1-c1nnc(CC2CC2)o1 [SLC-391] ; AUC(0-t) = 1800 ng·h/mL

====

assay.name: Plasma pharmacokinetics, QD and BID cohorts (non-compartmental)
Assay type: in vivo, human
applied.conditions: human, plasma, oral, 125 mg, QD; C1D21; plasma; read-out: AUC0–12, Mean
measure.name: AUC (ng·h/mL)
Please give a number only; it is taken to be in ng·h/mL.

Data point: `Nc1ncc(-c2cnn(C3CCNCC3)c2)cc1-c1nnc(CC2CC2)o1` ; AUC = 1120

====

assay.name: Plasma pharmacokinetics, QD and BID cohorts (non-compartmental)
Assay type: in vivo, human
applied.conditions: human, plasma, oral, 25 mg, QD; C1D1; plasma; read-out: AUC0–12, Mean
measure.name: AUC (ng·h/mL)
Please give a number only; it is taken to be in ng·h/mL.

Data point: `Nc1ncc(-c2cnn(C3CCNCC3)c2)cc1-c1nnc(CC2CC2)o1` ; AUC = 177

====

assay.name: Plasma pharmacokinetics, QD and BID cohorts (non-compartmental)
Type: in vivo, human
applied.conditions: human, plasma, oral, 50 mg, QD; C1D1; plasma; read-out: AUC0–last, Mean
measure.name: AUC(0-t) (ng·h/mL)
Please give a number only; it is taken to be in ng·h/mL.

Data point: Nc1ncc(-c2cnn(C3CCNCC3)c2)cc1-c1nnc(CC2CC2)o1 [SLC-391] ; AUC(0-t) = 594

====

assay.name: Plasma pharmacokinetics, QD and BID cohorts (non-compartmental)
Format: in vivo, human
applied.conditions: human, plasma, oral, 50 mg, QD; C1D1; plasma; read-out: AUC0–12, Median
measure.name: AUC (ng·h/mL)
Please give a number only; it is taken to be in ng·h/mL.

Data point: `Nc1ncc(-c2cnn(C3CCNCC3)c2)cc1-c1nnc(CC2CC2)o1` ; AUC = 413

====

assay.name: Plasma pharmacokinetics, QD and BID cohorts (non-compartmental)
Assay type: in vivo, human
applied.conditions: human, plasma, oral, 50 mg, QD; C1D21; plasma; read-out: AUC0–last, Median
measure.name: AUC(0-t) (ng·h/mL)
Please give a number only; it is taken to be in ng·h/mL.

Data point: `Nc1ncc(-c2cnn(C3CCNCC3)c2)cc1-c1nnc(CC2CC2)o1` ; AUC(0-t) = 1210

====

assay.name: Plasma pharmacokinetics, QD and BID cohorts (non-compartmental)
Assay type: in vivo, human
applied.conditions: human, plasma, oral, 150 mg, 150 mg BID, C1D1, mean, n=6, plasma; read-out: Cmax
measure.name: Cmax (ng/mL)
Please give a number only; it is taken to be in ng/mL.

Data point: Nc1ncc(-c2cnn(C3CCNCC3)c2)cc1-c1nnc(CC2CC2)o1 [SLC-391] ; Cmax = 236

====

assay.name: Plasma pharmacokinetics, QD and BID cohorts (non-compartmental)
Type: in vivo, human
applied.conditions: human, plasma, oral, 50 mg, QD; C1D21; plasma; read-out: Cmax, Median
Description: PK parameters were calculated by standard non-compartmental methods for SLC-391. Due to the long half-life of SLC-391 compared to the dosing interval, it was not possible to calculate a number of PK parameters, including plasma half-life and rate of elimination. Accumulation was assessed from the mean accumulation ratio factor (AR factor) calculated as the repeated dose (C1D21) mean value/single dose (C1D1) mean value for the PK parameters Cmax, AUC0–12, and AUC0–last for each dose group. […]
measure.name: Cmax (ng/mL)
Please give a number only; it is taken to be in ng/mL.

Data point: `Nc1ncc(-c2cnn(C3CCNCC3)c2)cc1-c1nnc(CC2CC2)o1` ; Cmax = 99.2

====

assay.name: Plasma pharmacokinetics, QD and BID cohorts (non-compartmental)
Format: in vivo, human
applied.conditions: human, plasma, oral, 175 mg, QD; C1D1; plasma; read-out: Cmax, Mean
measure.name: Cmax (ng/mL)
Please give a number only; it is taken to be in ng/mL.

Data point: Nc1ncc(-c2cnn(C3CCNCC3)c2)cc1-c1nnc(CC2CC2)o1 [SLC-391] ; Cmax = 357

====

assay.name: Plasma pharmacokinetics, QD and BID cohorts (non-compartmental)
Type: in vivo, human
applied.conditions: human, plasma, oral, 50 mg, QD; C1D1; plasma; read-out: Tmax, Median
Description: PK parameters were calculated by standard non-compartmental methods for SLC-391. Due to the long half-life of SLC-391 compared to the dosing interval, it was not possible to calculate a number of PK parameters, including plasma half-life and rate of elimination. Accumulation was assessed from the mean accumulation ratio factor (AR factor) calculated as the repeated dose (C1D21) mean value/single dose (C1D1) mean value for the PK parameters Cmax, AUC0–12, and AUC0–last for each dose group. […]
measure.name: Tmax (h)
Please give a number only; it is taken to be in h.

Data point: Nc1ncc(-c2cnn(C3CCNCC3)c2)cc1-c1nnc(CC2CC2)o1 [SLC-391] ; Tmax = 1

====

assay.name: Plasma pharmacokinetics, QD and BID cohorts (non-compartmental)
Type: in vivo, human
applied.conditions: human, plasma, oral, 110 mg, 110 mg BID, C1D1, median, n=3, plasma; read-out: Tmax
measure.name: Tmax

Data point: Nc1ncc(-c2cnn(C3CCNCC3)c2)cc1-c1nnc(CC2CC2)o1 [SLC-391] ; Tmax = 3 h
